Taken from ChEMBL document CHEMBL4602683.

system: Staphylococcus aureus; experiment: Antibacterial activity against Staphylococcus aureus ATCC 29213 by resazurin dye based microdilution method; format: functional

compound: CN(C=O)c1c2sscc-2[nH]c1=O
MIC: 0.5 µg/mL

compound: CN(C=O)C1=C2C(=CSS2(=O)=O)NC1=O
MIC: 8 µg/mL

compound: O=CNc1c2sscc-2[nH]c1=O
MIC: 4 µg/mL

compound: CN(C=O)C1=C2SCSC=C2NC1=O
MIC: > 64 µg/mL

compound: CC(=O)NC[C@H]1CN(c2ccc(N3CCOCC3)c(F)c2)C(=O)O1 [LINEZOLID]
MIC: 1 µg/mL

---

system: Escherichia coli; assay: Antibacterial activity against Escherichia coli by resazurin dye based microdilution method; type: functional

record smiles: CN(C=O)C1=C2C(=CSS2(=O)=O)NC1=O
measured target: Escherichia coli
comparison operator: =
MIC / µg/mL: 32
//
record smiles: CN(C=O)c1c2sscc-2[nH]c1=O
measured target: Escherichia coli
comparison operator: =
MIC / µg/mL: 0.5
//
record smiles: CN(C=O)C1=C2SCSC=C2NC1=O
measured target: Escherichia coli
comparison operator: >
MIC / µg/mL: 64
//
record smiles: CC(=O)NC[C@H]1CN(c2ccc(N3CCOCC3)c(F)c2)C(=O)O1
measured target: Escherichia coli
comparison operator: >
MIC / µg/mL: 64
//
record smiles: O=CNc1c2sscc-2[nH]c1=O
measured target: Escherichia coli
comparison operator: =
MIC / µg/mL: 1
